Origin of values: patent US6737383B1

Test system: cocklebur
Experiment: Test B pre/postemergence cocklebur
Format: in vivo, Xanthium strumarium
Details: Postemergence, Rate 250 g/ha; scale 0 to 10
Let's look at some compounds and their measured Cocklebur plant response rating.
Quick one: just the number, no unit, thanks!

Sample records with Cocklebur plant response rating:
COMPOUND | Cocklebur plant response rating
CC(C)N(C(=O)n1oc(=O)n(C(C)C(=O)N(C)C)c1=O)c1ccc(F)cc1 (stereo not shown) [Compound 478] | 0
COC(C)n1c(=O)on(C(=O)N(c2ccccc2)C(C)C)c1=O (stereo not shown) [Compound 441] | 0
CC(C)N(C(=O)n1oc(=O)n(CCS(C)(=O)=O)c1=O)c1ccc(F)cc1 [Compound 453] | 0
CC(Cl)=CCn1c(=O)on(C(=O)N(c2ccc(F)cc2F)C(C)C)c1=O [Compound 514] | 3
CC(C)N(C(=O)n1oc(=O)n(C[Si](C)(C)c2ccccc2)c1=O)c1ccc(Cl)cc1 [Compound 424] | 0
CC(C)N(C(=O)n1oc(=O)n(CC#N)c1=O)c1ccccc1 [Compound 434] | 0

Per the record, CC(C)N(C(=O)n1oc(=O)n(CC(=O)N(C)C)c1=O)c1ccc(F)cc1F [Compound 440] has Cocklebur plant response rating of 0

Per the record, CC(C)N(C(=O)n1oc(=O)n(C(CF)CF)c1=O)c1ccc(Cl)cc1 [Compound 468] has Cocklebur plant response rating of 2

Per the record, CC(C)N(C(=O)n1oc(=O)n(CC2=NCCO2)c1=O)c1ccccc1 [Compound 495] has Cocklebur plant response rating of 0

Per the record, CC(=O)C(C)n1c(=O)on(C(=O)N(c2ccc(F)cc2F)C(C)C)c1=O (stereo not shown) [Compound 517] has Cocklebur plant response rating of 0
